Entries annotated with measured IC50
Molecular target: Cyclin-dependent kinase 2 (Homo sapiens)
Assay: Inhibition of recombinant CDK2 expressed in baculovirus using […] by 33-P leadseeker assay

[
  {
    "compound_string": "COCc1ccccc1-c1c[nH]c(=O)c2cc(-c3ccncc3)sc12",
    "IC50": "5.01 µM"
  },
  {
    "compound_string": "O=c1[nH]cc(-c2cccc3cccnc23)c2sc(-c3ccncc3)cc12",
    "IC50": "12.6 µM"
  },
  {
    "compound_string": "O=c1[nH]cc(-c2ccc(N3CCOCC3)cc2)c2sc(-c3ccncc3)cc12",
    "IC50": "15.8 µM"
  },
  {
    "compound_string": "COc1cc(F)ccc1-c1c[nH]c(=O)c2cc(-c3ccncc3)sc12",
    "IC50": "5.01 µM"
  },
  {
    "compound_string": "Cn1cc(-c2ccc(N3CCOCC3)cc2)c2sc(-c3ccncc3)cc2c1=O",
    "IC50": "> 15.8 µM"
  },
  {
    "compound_string": "CN(C)C(=O)c1ccccc1-c1c[nH]c(=O)c2cc(-c3ccncc3)sc12",
    "IC50": "> 15.8 µM"
  },
  {
    "compound_string": "COc1ncc(-c2ccc(N3CCOCC3)cc2)c2sc(-c3ccncc3)cc12",
    "IC50": "> 15.8 µM"
  },
  {
    "compound_string": "O=c1[nH]cc(-c2ccc3c(c2)OCCO3)c2sc(-c3ccncc3)cc12",
    "IC50": "1.58 µM"
  },
  {
    "compound_string": "N#CCc1cccc(-c2c[nH]c(=O)c3cc(-c4ccncc4)sc23)c1",
    "IC50": "3.98 µM"
  },
  {
    "compound_string": "O=c1[nH]cc(-c2cccc(Cl)n2)c2sc(-c3ccncc3)cc12",
    "IC50": "> 15.8 µM"
  }
]

----------
Target: Glycogen synthase kinase-3 beta (Homo sapiens, UniProt P49841)
Sequence (P49841 whole entry): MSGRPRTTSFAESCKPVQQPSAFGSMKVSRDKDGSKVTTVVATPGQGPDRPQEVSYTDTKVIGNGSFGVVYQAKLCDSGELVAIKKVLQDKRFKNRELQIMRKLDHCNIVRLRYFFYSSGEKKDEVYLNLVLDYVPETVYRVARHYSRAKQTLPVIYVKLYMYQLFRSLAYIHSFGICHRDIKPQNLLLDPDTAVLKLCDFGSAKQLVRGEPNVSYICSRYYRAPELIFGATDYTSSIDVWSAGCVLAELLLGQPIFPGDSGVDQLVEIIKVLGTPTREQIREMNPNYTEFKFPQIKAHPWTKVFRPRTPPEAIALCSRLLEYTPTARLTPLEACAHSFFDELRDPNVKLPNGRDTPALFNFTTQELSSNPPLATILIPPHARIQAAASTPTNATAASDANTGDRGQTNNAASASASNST
Test: Inhibition of human flag-tagged GSK3-beta expressed in HEK-MSRII cells assessed as CRMP-2 phosphorylation by alphaLISA assay
Type: cell-based
pIC50: −log10 of the molar value.
endpoint: pIC50

[
  {
    "compound_string": "CN(C)C(=O)c1ccccc1-c1c[nH]c(=O)c2cc(-c3ccncc3)sc12",
    "endpoint": "pIC50",
    "censoring_operator": "=",
    "test_result": 5.20
  },
  {
    "compound_string": "N#CCc1cccc(-c2c[nH]c(=O)c3cc(-c4ccncc4)sc23)c1",
    "endpoint": "pIC50",
    "censoring_operator": "=",
    "test_result": 6.20
  },
  {
    "compound_string": "N#Cc1cscc1-c1c[nH]c(=O)c2cc(-c3ccncc3)sc12",
    "endpoint": "pIC50",
    "censoring_operator": "=",
    "test_result": 6.50
  },
  {
    "compound_string": "COc1ncc(-c2ccc(N3CCOCC3)cc2)c2sc(-c3ccncc3)cc12",
    "endpoint": "pIC50",
    "censoring_operator": "<",
    "test_result": 4.00
  },
  {
    "compound_string": "O=c1[nH]cc(-c2ccc(N3CCOCC3)cc2)c2sc(-c3cn[nH]c3)cc12",
    "endpoint": "pIC50",
    "censoring_operator": "=",
    "test_result": 6.40
  },
  {
    "compound_string": "N#Cc1ccc(F)c(-c2c[nH]c(=O)c3cc(-c4ccncc4)sc23)c1",
    "endpoint": "pIC50",
    "censoring_operator": "=",
    "test_result": 7.10
  },
  {
    "compound_string": "CCOc1ccc(-c2c[nH]c(=O)c3cc(-c4ccncc4)sc23)cn1",
    "endpoint": "pIC50",
    "censoring_operator": "=",
    "test_result": 5.50
  },
  {
    "compound_string": "CS(=O)(=O)Nc1cccc(-c2c[nH]c(=O)c3cc(-c4ccnc5[nH]ccc45)sc23)c1",
    "endpoint": "pIC50",
    "censoring_operator": "<",
    "test_result": 4.00
  },
  {
    "compound_string": "O=c1[nH]cc(-c2ccc3c(c2)OCCO3)c2sc(-c3ccncc3)cc12",
    "endpoint": "pIC50",
    "censoring_operator": "=",
    "test_result": 6.20
  },
  {
    "compound_string": "Cc1cc(-c2cc3c(=O)[nH]cc(-c4cccc(NS(C)(=O)=O)c4)c3s2)ccn1",
    "endpoint": "pIC50",
    "censoring_operator": "<",
    "test_result": 4.00
  },
  {
    "compound_string": "O=c1[nH]cc(-c2cccc3cccnc23)c2sc(-c3ccncc3)cc12",
    "endpoint": "pIC50",
    "censoring_operator": "=",
    "test_result": 5.10
  }
]

----------
Measured IC50 accompanies every entry in the list below.
Target: Glycogen synthase kinase-3 beta (Homo sapiens)
Assay: Inhibition of human flag-tagged GSK3-beta expressed in HEK-MSRII cells assessed as CRMP-2 phosphorylation by alphaLISA assay
Format: cell-based

[
  {
    "compound_string": "COCc1ccccc1-c1c[nH]c(=O)c2cc(-c3ccncc3)sc12",
    "system_name": "Glycogen synthase kinase-3 beta (Homo sapiens)",
    "unit_abbrev": "µM",
    "censoring_operator": "=",
    "IC50": 3.98
  },
  {
    "compound_string": "COc1cc(F)ccc1-c1c[nH]c(=O)c2cc(-c3ccncc3)sc12",
    "system_name": "Glycogen synthase kinase-3 beta (Homo sapiens)",
    "unit_abbrev": "µM",
    "censoring_operator": "=",
    "IC50": 5.01
  },
  {
    "compound_string": "Cn1cc(-c2ccc(N3CCOCC3)cc2)c2sc(-c3ccncc3)cc2c1=O",
    "system_name": "Glycogen synthase kinase-3 beta (Homo sapiens)",
    "unit_abbrev": "µM",
    "censoring_operator": ">",
    "IC50": 100
  },
  {
    "compound_string": "O=c1[nH]cc(-c2ccc(N3CCOCC3)cc2)c2sc(-c3ccncc3)cc12",
    "system_name": "Glycogen synthase kinase-3 beta (Homo sapiens)",
    "unit_abbrev": "µM",
    "censoring_operator": "=",
    "IC50": 1.26
  },
  {
    "compound_string": "O=c1[nH]cc(-c2cccc(Cl)n2)c2sc(-c3ccncc3)cc12",
    "system_name": "Glycogen synthase kinase-3 beta (Homo sapiens)",
    "unit_abbrev": "µM",
    "censoring_operator": "=",
    "IC50": 3.98
  }
]

----------
Molecular target: Glycogen synthase kinase-3 beta (Homo sapiens, UniProt P49841)
Assay: Inhibition of human full length His-tagged GSK3-beta expressed in baculovirus by alphaLISA assay
pIC50: −log10 of the molar value.
endpoint: pIC50

[
  {
    "compound_string": "COc1ncc(-c2ccc(N3CCOCC3)cc2)c2sc(-c3ccncc3)cc12",
    "test_result": 5.00
  },
  {
    "compound_string": "CS(=O)(=O)Nc1cccc(-c2c[nH]c(=O)c3cc(-c4ccnc5[nH]ccc45)sc23)c1",
    "test_result": 7.70
  },
  {
    "compound_string": "O=c1[nH]cc(-c2ccc(N3CCOCC3)cc2)c2sc(-c3cn[nH]c3)cc12",
    "test_result": 7.90
  },
  {
    "compound_string": "Cn1cc(-c2ccc(N3CCOCC3)cc2)c2sc(-c3ccncc3)cc2c1=O",
    "test_result": 6.60
  },
  {
    "compound_string": "O=c1[nH]cc(-c2ccc(N3CCOCC3)cc2)c2sc(-c3ccncc3)cc12",
    "test_result": 7.20
  }
]

----------
Target: Cyclin-dependent kinase 2 (Homo sapiens, UniProt P24941)
Test: Inhibition of recombinant CDK2 expressed in baculovirus using […] by 33-P leadseeker assay
pIC50: −log10 of the molar value.
endpoint: pIC50

[
  {
    "compound_string": "CCOc1ccc(-c2c[nH]c(=O)c3cc(-c4ccncc4)sc23)cn1",
    "test_result": 5.20
  },
  {
    "compound_string": "N#Cc1ccc(F)c(-c2c[nH]c(=O)c3cc(-c4ccncc4)sc23)c1",
    "test_result": 6.70
  },
  {
    "compound_string": "O=c1[nH]cc(-c2ccc(N3CCOCC3)cc2)c2sc(-c3cn[nH]c3)cc12",
    "test_result": 6.60
  },
  {
    "compound_string": "N#Cc1cscc1-c1c[nH]c(=O)c2cc(-c3ccncc3)sc12",
    "test_result": 6.80
  },
  {
    "compound_string": "CS(=O)(=O)Nc1cccc(-c2c[nH]c(=O)c3cc(-c4ccnc5[nH]ccc45)sc23)c1",
    "test_result": 5.50
  }
]
